Consider the following molecules; for each one, report its GI50.
test system: SF-295 CNS; experiment: NCI tumour cell line growth inhibition, 48 h

Req: So what's the measured GI50 for this one? COC(=O)c1cc(-c2cc(OC)c(OC)c(OC)c2)[nH]c1N/N=C/c1c(Cl)cccc1Cl
Resp: 1.01 µM

Req: So what's the measured GI50 for this one? CC(CN1CCN(C)CC1)CN1c2ccccc2Sc2ccc(C(F)(F)F)cc21 (stereo not drawn)
Resp: 1.97 µM

Req: So what's the measured GI50 for this one? COc1ccc(-c2cc(-c3ccccc3)nc(N3CCN(CCNc4ccnc5cc(Cl)ccc45)CC3)n2)cc1
Resp: 16.6 µM

Req: So what's the measured GI50 for this one? Cn1ccnc1C(=O)/C=C/c1ccc(CC(=O)Nc2ccc(S(F)(F)(F)(F)F)cc2)cc1
Resp: 2.16 µM

Req: So what's the measured GI50 for this one? CCN(CCNc1ccc(C)c2sc3cc(Cl)ccc3c(=O)c12)CC(C)O (stereo not drawn)
Resp: 1.67 µM

Req: So what's the measured GI50 for this one? CS(=O)(=O)c1ccc(-c2cnc(N)c(C(=O)Nc3ccccc3)n2)cc1
Resp: 24.2 µM

Req: So what's the measured GI50 for this one? N#Cc1cccc(C(=O)Nc2cccc(NC(=O)c3cccc(C#N)c3)c2)c1
Resp: > 100 µM

Req: So what's the measured GI50 for this one? N#Cc1c(N)nc(N2CCOCC2)c(C#N)c1-c1ccc(Cl)cc1
Resp: 44.8 µM

Req: So what's the measured GI50 for this one? C=CC1=C[C@@H]2[C@@H]3O[C@]4(CC[C@H](O4)[C@@H](C)C[C@@H](O)C3=O)C[C@H](O)C3=NCC[C@@]32CC1
Resp: < 0.00333 µM

Req: So what's the measured GI50 for this one? C/C(=C\c1ccn(-c2ccc(N)c(F)c2)n1)[C@@H]1C[C@@H]2O[C@]2(C)CCC[C@H](C)[C@H](O)[C@@H](C)C(=O)C(C)(C)[C@@H](O)CC(=O)O1
Resp: 0.0205 µM

Req: So what's the measured GI50 for this one? C[C@H]1[C@H](C)CC[C@]2(C(=O)N3CCN(C)CC3)CC[C@]3(C)C(=CC[C@@H]4[C@@]5(C)C/C(=C/c6cccnc6)C(=O)C(C)(C)[C@@H]5CC[C@]43C)[C@H]12
Resp: 1.6 µM

Req: So what's the measured GI50 for this one? C=CC(=O)N1CCN(c2nc(OC[C@@H]3CCCN3C)nc3c2CCN(c2cccc4cccc(C)c24)C3)C[C@@H]1CC#N
Resp: 1.53 µM

Req: So what's the measured GI50 for this one? CC(C)C[C@H](NC(=O)[C@H]1O[C@@H]1C(=O)O)C(=O)NCCc1ccc(O)cc1
Resp: > 100 µM

----------
system: PC-3 prostate; assay: NCI tumour cell line growth inhibition, 48 h
reported-endpoint: GI50

Req: So what's the measured GI50 for this one? Cn1c(=O)c(Oc2ccc(F)cc2F)cc2cnc(NC(CO)CO)nc21
Resp: > 25 µM

Req: So what's the measured GI50 for this one? N#Cc1c(N)nc(N2CCOCC2)c(C#N)c1-c1ccc(Cl)cc1
Resp: 16.6 µM

Req: So what's the measured GI50 for this one? O=C1/C(=C/c2ccc([N+](=O)[O-])o2)Oc2ccc(Br)cc21
Resp: 3.52 µM

Req: So what's the measured GI50 for this one? CCCCCCC#Cc1ccccc1C#CCO
Resp: 25.4 µM

Req: So what's the measured GI50 for this one? C=CCNCCCN1C(=O)c2ccc3c4c(ccc(c24)C1=O)C(=O)N(CCCNCC=C)C3=O
Resp: 0.589 µM

Req: So what's the measured GI50 for this one? CC(C)[C@@]12C[C@@H](OC(=O)COC(=O)/C=C/c3ccccc3)[C@@](C)(O1)[C@@H]1CC[C@@H](C)[C@H]1[C@@H]2OC(=O)/C=C/c1ccccc1
Resp: > 100 µM

Req: So what's the measured GI50 for this one? N=c1c2c(-c3ccccc3)c(-c3ccccc3)n(Cc3ccccc3)c2ncn1CCCO
Resp: 1.62 µM

Req: So what's the measured GI50 for this one? Cc1ccc(/C=C2/SC(Nc3nc(-c4nc(NC5=NC(=O)/C(=C\c6ccc(C)cc6)S5)sc4C)c(C)s3)=NC2=O)cc1
Resp: 0.757 µM

Req: So what's the measured GI50 for this one? NC(=NC1CCCCCCC1)c1ccc(N2CCN(c3ccc(C(N)=NC4CCCCCCC4)cc3)CC2)cc1
Resp: 22.6 µM

Req: So what's the measured GI50 for this one? Cc1nn(-c2ccccc2)c2c1CC(=O)Nc1ccccc1-2
Resp: 0.279 µM

Req: So what's the measured GI50 for this one? COC(=O)c1cc(-c2cc(OC)c(OC)c(OC)c2)[nH]c1N/N=C/c1c(Cl)cccc1Cl
Resp: 0.893 µM

Req: So what's the measured GI50 for this one? N#Cc1cccc(C(=O)Nc2cccc(NC(=O)c3cccc(C#N)c3)c2)c1
Resp: 77.6 µM

Req: So what's the measured GI50 for this one? Cn1ccc2c(c1=O)C(=O)c1nccc3c1c-2nc1ccccc13
Resp: 1.69 µM

Req: So what's the measured GI50 for this one? CS(=O)(=O)c1ccc(-c2cnc(N)c(C(=O)Nc3ccccc3)n2)cc1
Resp: > 100 µM

Req: So what's the measured GI50 for this one? O=C(/C=C/c1cccs1)c1ccc(Nc2nc(Nc3ccc(F)cc3)nc(Nc3ccc(F)cc3)n2)cc1
Resp: 19 µM

Req: So what's the measured GI50 for this one? CC(C)C[C@H](NC(=O)[C@H]1O[C@@H]1C(=O)O)C(=O)NCCc1ccc(O)cc1
Resp: > 100 µM
